System: NCI/ADR-RES
experimental-details: NCI tumour cell line growth inhibition, 48 h
Calls of active or inactive are those of the source. Cut-off read from the data, not from the text of the source: active = GI50 up to about 1.1 µM and inactive = higher.
Classes used: class 1 (active), class 0 (inactive)

| molecule | answer-label |
| --- | --- |
| CC1=CCC(C)=Nc2nc3ccccc3n21 | class 0 |
| C/C(=C\c1csc(C)n1)[C@@H]1C[C@@H]2O[C@@H]2CCC[C@H](C)[C@H](O)[C@@H](C)C(=O)C(C)(C)[C@@H](O)CC(=O)O1.C/C(=C\c1csc(C)n1)[C@@H]1C[C@@H]2O[C@]2(C)CCC[C@H](C)[C@H](O)[C@@H](C)C(=O)C(C)(C)[C@@H](O)CC(=O)O1 | class 1 |
| CC1OC(n2cnc3c(N)nc(Cl)nc32)C(C)(O)C1O (configuration not stated) | class 0 |
| CC(C)CNP(=O)(NCC(C)C)Oc1ccc(CC(NC(=O)OCc2ccccc2)C(=O)OCc2ccccc2)cc1 (configuration not stated) | class 0 |
| CSc1c(C#N)c(N)nc2c(/N=N\c3ccc(Br)cc3)c(N)nn12 | class 0 |
| COC(CCC[N+](C)(C)C)CC[N+](C)(C)C (configuration not stated) | class 0 |
| CC1=CC(C)C(O)C(C)/C=C\C(O)C/C=C(/C)C(=O)CC(O)C(C)\C=C/C=C\C=C/C(=O)NC2=C(O)C(=O)c3c(cc(C)c(O)c3C1=O)C2=O (configuration not stated) | class 0 |
| COc1cc(/C=N/N=C2NCCCCN2)ccc1O | class 0 |
| O=[N+]([O-])c1cc(/N=N/c2c(O)ccc3cc(S(=O)(=O)O)ccc23)c(O)c([N+](=O)[O-])c1 | class 0 |
| CCCCCCCCCCCCCCCCCCNc1nc(=O)n(C2CC(OP(=O)(O)OCC3OC(n4cc(F)c(=O)[nH]c4=O)CC3O)C(CO)O2)cc1F (configuration not stated) | class 0 |
| CC12C=CC(C)(C3C(=O)C4C(C(=O)C31)C1(C)C=CC4(C)[S+]1[O-])[S+]2[O-] (configuration not stated) | class 0 |
| CCCCN1CCC(O)(c2cc(C(=O)O)[nH]c2-c2cc(C)no2)C1=O (configuration not stated) | class 0 |
| O=c1ccc2ccc(O)cc2o1 [UMBELLIFERONE] | class 0 |
| CC1CCCOc2ccc(cc2)/C=N\c2ccc(cc2)CCc2ccc(cc2)/N=C\c2ccc(cc2)OCCC1 | class 0 |
| CSc1ncc2c(n1)sc1c(=O)n(-c3ccccc3)cnc12 | class 0 |
| O=C(/C=C/c1ccc(O)c(O)c1)OCCc1cccc2ccccc12 | class 0 |
| COC(=O)C1=C(O)C(C(=O)OC)[C@@]2(O)[C@@H](C(=O)OC)C(c3ccc(OC(=O)/C=C/c4ccccc4)cc3)C[C@@H]1[C@@H]2C(=O)OC (some centres not stated) | class 0 |
| N#Cc1ccc(-c2nc(C#N)c(N)o2)cc1 | class 0 |
| CC(=O)C1=C(C)N2C(=NC3=C(CCc4ccccc43)C2c2ccc(Cl)cc2)S1 (configuration not stated) | class 0 |
| CC(=O)NC1C(OCc2ccccc2)OC(CO)C(O)C1OCC(=O)NC(C(=O)NC(CCC(=O)NCCCCCC(=O)Nc1ccc2c(c1)CN1C(=O)c3ccccc3C1=N2)C(N)=O)C(C)C (configuration not stated) | class 0 |
| O=C1OC2c3ccccc3C(=O)C2(c2ccccc2)N1c1ccccc1 (configuration not stated) | class 0 |
| CC(=O)Nc1cc2cc(NS(=O)(=O)c3cc(C(F)(F)F)cc(C(F)(F)F)c3)ccc2oc1=O | class 0 |
| CCSc1nc(N/N=C/c2cccs2)c2cnn(CO)c2n1 | class 0 |
| CN(C)CCCN1c2ccc(O)cc2Sc2ccc(Cl)cc21 [7-HYDROXYCHLORPROMAZINE] | class 0 |
| O=S(=O)(c1ccc(NC(=S)N/N=C/c2ccccc2O)cc1)N1CCCCC1 | class 1 |
| Clc1ccc(COC(Cn2ccnc2)c2ccc(Cl)cc2Cl)cc1 (configuration not stated) [ECONAZOLE] | class 0 |
| O=C1NC2(CCCCC2)N=C2C(Cl)CCCC12Cl (configuration not stated) | class 0 |
| CCOC(=O)/C=C/c1c(C)[nH]c(=O)[nH]c1=O | class 0 |
| O=[N+]([O-])c1ccc2c(c1)c(OCc1ccccc1)nn2Cc1ccccc1 | class 0 |
| CCOC(=O)c1c(NC(=O)OC)c(C#N)c2n1CCCCC2 | class 0 |
| Cn1c2ccc([N+](=O)[O-])cc2c(=O)c2c(O)cc(O)cc21 | class 0 |
| CN(CCCNC(=O)c1nn(-c2ccccc2)c2c1Cc1ccccc1-2)CCCNC(=O)c1nn(-c2ccccc2)c2c1Cc1ccccc1-2 | class 0 |
| CSc1c(C#N)c(=O)n(N)c2c1c(C)nn2-c1ccccc1 | class 0 |
| CC(=O)OCCC1c2ccccc2-n2nc(-c3ccccc3)c(O)c21 (configuration not stated) | class 0 |
| COC1(CCO)CC=CCC1(CCO)OC (configuration not stated) | class 0 |
| C[N+]1(CCCCN2c3ccccc3Sc3cc(N=[N+]=[N-])ccc32)CCN(C(=O)CCNC(=O)Cc2ccc(C(=O)c3ccccc3)cc2)CC1 | class 0 |
| COC(=O)c1ccccc1/C=C1\Cc2cc3c(cc2C1=O)CCC3 | class 0 |
